Recorded measurements of GI50, one per entry
- Tested on: HT-29
- test: NCI tumour cell line growth inhibition, 48 h
The source made the active and inactive calls. Rule as the data show it: active = GI50 up to about 1.1 µM and inactive = higher.
outcomeMeasure: GI50

{"columns": ["compound", "outcomeMeasure", "recordedResult"],
 "data": [
  ["CC1=C(C(=O)CC(=O)C(=O)NC2C3CC4CC(C3)CC2C4)Sc2ccccc2N1 (stereo unspecified)", "GI50", "> 100 µM (inactive)"],
  ["CC(=O)OCC1C(=O)OCC1C(=O)N1Cc2cc3ccccc3nc2C1 (stereo unspecified)", "GI50", "2.78 µM (inactive)"],
  ["O=C1C(c2ccc([N+](=O)[O-])cc2)=[N+]([O-])c2ccccc21", "GI50", "37.6 µM (inactive)"],
  ["CC/C(=C\\c1ccc(Cl)c(Cl)c1)[N+](=O)[O-]", "GI50", "3.4 µM (inactive)"],
  ["COc1ccc(N[S+]([O-])CCc2ccccc2)cc1 (stereo unspecified)", "GI50", "> 100 µM (inactive)"],
  ["CCCCCCCCCCCCCCCCCCOc1ccc(/C=C/C2=[N+](CCCl)CCO2)cc1", "GI50", "> 100 µM (inactive)"]
]}

----------
- Tested on: DLD-1
- test: NCI tumour cell line growth inhibition, 48 h
Active and inactive are the calls of the source. Rule as the data show it: active = GI50 up to about 1.1 µM and inactive = higher.
outcomeMeasure: GI50

{"columns": ["compound", "outcomeMeasure", "recordedResult"],
 "data": [
  ["CCOC(=O)/C(=C\\c1ccc(N(CCC#N)CCC#N)cc1)NC(=O)c1cc([N+](=O)[O-])ccc1Cl", "GI50", "> 100 µM (inactive)"],
  ["COc1cc(/C=C/c2ccc(OC)c(OC)c2OC)cc(OC)c1OC", "GI50", "18.3 µM (inactive)"],
  ["O=C(O)C1=C(C(=O)Nc2ccc(NC(=O)C3=C(C(=O)O)C4C=CC3C4)cc2)C2C=CC1C2", "GI50", "> 100 µM (inactive)"],
  ["CC(=O)OCC1C(=O)OCC1C(=O)N1Cc2cc3ccccc3nc2C1 (stereo not given)", "GI50", "1.61 µM (inactive)"],
  ["N#Cc1c2c(c(N=[N+]=[N-])n3c1nc1ccccc13)CCCC2", "GI50", "1.39 µM (inactive)"],
  ["CN(C)CCCCC1CCN(CC(=O)N2c3ccccc3NC(=O)c3ccccc32)CC1", "GI50", "> 100 µM (inactive)"],
  ["N#Cc1c2ccccc2cn1-c1ccc(F)cc1", "GI50", "48.8 µM (inactive)"],
  ["COc1cc2c(cc1O)CN1CCC23C=C[C@@H](O)CC13 (stereo not given in full)", "GI50", "63 µM (inactive)"],
  ["COc1ccc(-c2cc(=O)c3c(O)c(O)c(OC)cc3o2)cc1O", "GI50", "> 100 µM (inactive)"],
  ["C#Cc1cccc(N2C(=O)c3c(c(-c4ccccc4)c(-c4ccc(Cc5ccc(-c6c(-c7ccccc7)c7c(c(-c8ccccc8)c6-c6ccccc6)C(=O)N(c6cccc(C#C)c6)C7=O)cc5)cc4)c(-c4ccccc4)c3-c3ccccc3)C2=O)c1", "GI50", "32.9 µM (inactive)"],
  ["COC(=O)C1C=CCON2CCc3c(n(C)c4ccccc34)C12 (stereo not given)", "GI50", "> 100 µM (inactive)"],
  ["Cn1c(=O)nc2n(-c3ccc(Cl)cc3)c(-c3ccccc3)c(-c3ccccc3)nc-2c1=O", "GI50", "34 µM (inactive)"],
  ["COc1ccccc1-n1c(N)c2c(C)c(-c3ccccc3)[nH]c2nc1=S", "GI50", "> 100 µM (inactive)"],
  ["COc1ccc2nc(-c3ccccn3)cc(O)c2c1", "GI50", "52.6 µM (inactive)"],
  ["CCOC(=O)N1C=NC23C(c4ccccc4)C(c4ccccc4)C12C(=O)N(C)C(=O)N3C (stereo not given)", "GI50", "> 100 µM (inactive)"],
  ["CC1CC[P+](c2ccccc2)(c2ccccc2)c2c1ccc1ccccc21 (stereo not given)", "GI50", "3.74 µM (inactive)"],
  ["C[n+]1c2ccccc2c(/C=N\\NS(=O)(=O)c2ccc(O)c(C(=O)O)c2)c2ccccc21", "GI50", "58.7 µM (inactive)"],
  ["COc1ccc(C2CC(c3cc(C)ccc3O)=NC(N)=N2)cc1 (stereo not given)", "GI50", "> 100 µM (inactive)"],
  ["CSc1nc(SC)c2c(C(N)=S)n[nH]c2n1", "GI50", "37 µM (inactive)"],
  ["Cc1ccc(S(=O)(=O)OCC23CCC(CC2)C2CC23)cc1 (stereo not given)", "GI50", "74.1 µM (inactive)"]
]}

----------
- Test system: OVCAR-8
- test: NCI tumour cell line growth inhibition, 48 h
The source made the active and inactive calls. No stated cut-off is given here; in the data, active = GI50 up to about 1.1 µM and inactive = higher.
Outcomes: active, inactive

{"columns": ["compound", "assignedCategory"],
 "data": [
  ["CCCCCCCCCCCCCC(=O)OC(/C=C/C(C)C)C(O)C(O)C(OC)C(=O)NC1CCCCNC1=O (centres undefined)", "active"],
  ["COc1cc2c(c(OC)c1OC)C(=O)NCCC2", "inactive"],
  ["CC(=O)OCC1C(=O)OCC1C(=O)N1Cc2cc3ccccc3nc2C1 (centres undefined)", "inactive"],
  ["COC(=O)C(/C(=N/NC(=O)c1ccncc1)C(=O)Nc1ccccc1OC)c1nc2ccc(Cl)cc2nc1O (centres undefined)", "inactive"],
  ["CC(=O)c1cc(S(=O)(=O)c2ccc(O)c(C(C)=O)c2)ccc1O", "inactive"],
  ["N#CCCC1(CCC#N)CCCCCCCCC(CCC#N)(CCC#N)C(O)C1O (centres undefined)", "inactive"],
  ["Cc1cc(C)c(-c2no/c(=N\\S(=O)(=O)c3ccc(Cl)cc3)o2)c(C)c1", "inactive"],
  ["O=c1c2ccccc2nc(-c2ccccc2)n1NC(=S)Nc1ccc(Cl)cc1", "inactive"],
  ["C#Cc1cccc(N2C(=O)c3c(c(-c4ccccc4)c(-c4ccc(Cc5ccc(-c6c(-c7ccccc7)c7c(c(-c8ccccc8)c6-c6ccccc6)C(=O)N(c6cccc(C#C)c6)C7=O)cc5)cc4)c(-c4ccccc4)c3-c3ccccc3)C2=O)c1", "inactive"]
]}

----------
- Test system: 786-0
- test: NCI tumour cell line growth inhibition, 48 h
The source made the active and inactive calls. No stated cut-off is given here; in the data, active = GI50 up to about 1.1 µM and inactive = higher.
List of GI50 values.

{"columns": ["molecule", "GI50"],
 "data": [
  ["Cc1[nH]n(-c2nc(O)c(-c3ccccc3)c(=O)[nH]2)c(=O)c1CCO", "> 100 µM (inactive)"],
  ["CCOC(=O)Nc1ccc2c(c1)c(CCCCCCc1nc3ccccc3c3ccc(NC(=O)OCC)cc13)nc1ccccc12", "18.4 µM (inactive)"],
  ["O=c1c(C(c2ccco2)c2c(O)oc3ccccc3c2=O)c(O)oc2ccccc12", "25.1 µM (inactive)"],
  ["O=C1C2Cc3ccccc3CN2C(=O)N1CCN1CCOCC1 (configuration not stated)", "> 100 µM (inactive)"],
  ["O=C1C=CC(=O)c2cc(Sc3ccccc3)c(=O)ccc21", "14.8 µM (inactive)"],
  ["CC(=O)OCC1C(=O)OCC1C(=O)N1Cc2cc3ccccc3nc2C1 (configuration not stated)", "1.58 µM (inactive)"],
  ["COC(=O)c1cc2c(c(C(=O)OC)c1O)C(=O)C=CC2=O", "35.7 µM (inactive)"],
  ["CCCCOC(=O)NC(=O)c1cn(C2CCCCC2)c(=O)[nH]c1=O", "18.6 µM (inactive)"],
  ["C=CC[C@@]12CCC(=O)C=C1CCCC2=O", "> 100 µM (inactive)"],
  ["CC(C)CC(NC=O)C(=O)NC(Cc1ccccc1)NC(=O)CNC(=O)C(C)NC(=O)C(N)Cc1ccc(O)cc1 (configuration not stated)", "> 100 µM (inactive)"],
  ["CCOC(=O)N1C=NC23C(c4ccccc4)C(c4ccccc4)C12C(=O)N(C)C(=O)N3C (configuration not stated)", "> 100 µM (inactive)"],
  ["N#CCN1c2ccccc2CCC1Cl (configuration not stated)", "> 10 µM (inactive)"],
  ["c1ccc(CCc2cccnc2)nc1", "> 100 µM (inactive)"],
  ["O=c1[nH]c2ccc(CC(=S)N3CCN(c4ccccc4)CC3)cc2s1", "34.4 µM (inactive)"],
  ["CCOC(=O)/C(=C\\c1ccc(N(CCC#N)CCC#N)cc1)NC(=O)c1cc([N+](=O)[O-])ccc1Cl", "> 100 µM (inactive)"],
  ["O=C(OC1CCC2OOC1O2)c1ccc([N+](=O)[O-])cc1 (configuration not stated)", "> 100 µM (inactive)"],
  ["O=C(N/N=C\\c1ccc(Cl)cc1)Nc1cccc2ccccc12", "1.98 µM (inactive)"],
  ["O=c1[nH]c2ccc(C(F)(F)F)cc2nc1Cc1ccccc1", "35.5 µM (inactive)"],
  ["N/N=c1\\c2ccccc2c2cc3c(cc12)/c(=N/N)c1ccccc13", "> 100 µM (inactive)"],
  ["COc1ccccc1C1(c2c(OC(C)C)c(=O)c2=O)SCCCS1", "> 100 µM (inactive)"],
  ["CCOC(=O)/C(=C\\NC(N)=S)C(=O)c1ccccc1", "> 100 µM (inactive)"],
  ["COC(=O)C(CCCN1C(=O)c2ccccc2C1=O)C(=O)OC", "> 100 µM (inactive)"]
]}
